Record form. Attribute: Minimal Inhibitory Concentration (MIC). Fill in for each entry.
Tested on: E. coli NIHJ JC-2
Assay: Minimal Inhibitory Concentration (MIC), agar dilution method
Type: cell-based
Design: unit not given here
Conditions: Test Microorganism (4) E. coli NIHJ JC-2; Trypticase soy agar, 37°C for 18 hours

Query block: Supply Minimal Inhibitory Concentration (MIC) value. Item: CC(C)(O)[C@@H]1C(=O)N2C(C(=O)O)=C(SCCN3CCCC3)C[C@H]12 [Example 49]
Result block: 0.78

Query block: Determine from records and report Minimal Inhibitory Concentration (MIC) for CC(C)(O)[C@@H]1C(=O)N2C(C(=O)O)=C(SCCCNC=N)C[C@H]12 [Example 47]
Result block: 0.39

Query block: Give Minimal Inhibitory Concentration (MIC) for the following compound: CC(C)(O)[C@@H]1C(=O)N2C(C(=O)O)=C(SCCCN)C[C@H]12 [Example 33]
Result block: 0.39

Query block: Kindly indicate its recorded Minimal Inhibitory Concentration (MIC). Item: CC(C)(O)[C@@H]1C(=O)N2C(C(=O)O)=C(Sc3cccnn3)C[C@H]12 [Example 20]
Result block: 0.78

Query block: Tell me Minimal Inhibitory Concentration (MIC) reported for CC(C)(O)[C@@H]1C(=O)N2C(C(=O)O)=C(SCCN3CCCCC3)C[C@H]12 [Example 51]
Result block: 0.78

Query block: Supply reported Minimal Inhibitory Concentration (MIC) belonging to this compound: CN(C)CCSC1=C(C(=O)O)N2C(=O)[C@@H](C(C)(C)O)[C@H]2C1 [Example 26]
Result block: 0.78

Query block: Item CC(C)(O)[C@@H]1C(=O)N2C(C(=O)O)=C(SCCN)C[C@H]12 [Example 2] : provide Minimal Inhibitory Concentration (MIC)
Result block: 1.56

Query block: Determine its reported Minimal Inhibitory Concentration (MIC): CC(C)(O)[C@@H]1C(=O)N2C(C(=O)O)=C(SCCNC=N)C[C@H]12 [Example 46]
Result block: 0.39

----------
System: C. freundii IFO 12681
Experiment: Minimal Inhibitory Concentration (MIC), agar dilution method
Type: cell-based
Design: unit not given here
Settings: Test Microorganism (7) C. freundii IFO 12681; Trypticase soy agar, 37°C for 18 hours
QUANTITY NAME: Minimal Inhibitory Concentration (MIC)

Query block: Please look at this compound and report its Minimal Inhibitory Concentration (MIC): CC(C)(O)[C@@H]1C(=O)N2C(C(=O)O)=C(SCCN)C[C@H]12
Result block: 3.13

Query block: Provide only the value of recorded Minimal Inhibitory Concentration (MIC) for CC(C)(O)[C@@H]1C(=O)N2C(C(=O)O)=C(SCCCNC=N)C[C@H]12
Result block: 1.56

Query block: Recall and state the measured Minimal Inhibitory Concentration (MIC) for CC(C)(O)[C@@H]1C(=O)N2C(C(=O)O)=C(Sc3cccnn3)C[C@H]12 .
Result block: 0.78

Query block: Specify reported Minimal Inhibitory Concentration (MIC) for the compound shown: CC(C)(O)[C@@H]1C(=O)N2C(C(=O)O)=C(SCCN3CCCCC3)C[C@H]12
Result block: 3.13

Query block: Recall and state the measured Minimal Inhibitory Concentration (MIC) for CN(C)CCSC1=C(C(=O)O)N2C(=O)[C@@H](C(C)(C)O)[C@H]2C1 .
Result block: 3.13

Query block: Give me measured Minimal Inhibitory Concentration (MIC), please, for this compound: CC(C)(O)[C@@H]1C(=O)N2C(C(=O)O)=C(SCCCN)C[C@H]12
Result block: 3.13

Query block: Annotate the compound CC(C)(O)[C@@H]1C(=O)N2C(C(=O)O)=C(SCCN3CCCC3)C[C@H]12 with its measured Minimal Inhibitory Concentration (MIC).
Result block: 3.13

Query block: Input CC(C)(O)[C@@H]1C(=O)N2C(C(=O)O)=C(SCCNC=N)C[C@H]12 , output reported Minimal Inhibitory Concentration (MIC).
Result block: 1.56
